Tested on: CD2F1 mice, L1210 leukemia ip, survival T/C
Test: NCI In Vivo Anticancer Drug Screen. Data for tumor model L1210 Leukemia (intraperitoneal) in CD2F1 (CDF1) mice
Details: endpoint: mean survival time; dose: 200.0 mg/kg/injection; schedule: Q04DX003 (ip); vehicle: saline with Tween-80; higher = longer survival
Protocol: The antitumor activity of compounds was measured in mice bearing transplantable tumors. Survival or tumor size were measured and the results are expressed as the measurement made in the treated group (T) divided by the measurement made in the vehicle treated control group (C). The tumor model used in this assay is L1210 Leukemia (intraperitoneal) in CD2F1 (CDF1) mice
Toxic doses and inconclusive results are not listed.
measuredAttribute: T/C

1) CC1(C)C2=CCCC3(OCCO3)C2(C)CCC1O (stereo unspecified) : 98 % of control
2) O=c1c(F)cn(-c2ccco2)c(=O)n1-c1ccco1 : 98 % of control
3) CC1(C)C2CC=C(CCCc3ccccc3)C1C2 (stereo unspecified) : 93 % of control
4) Nc1ccc2scnc2c1 : 96 % of control
5) O=C1CCC(=O)N1CCC1=NCCc2cc(OCc3ccccc3)ccc21 : 94 % of control

// next item, T/C requested
Test item O=C([O][Sb]([O]C(=O)C(Cl)Cl)([c]1ccccc1)([c]1ccccc1)[c]1ccccc1)C(Cl)Cl ; CD2F1 mice, L1210 leukemia ip, survival T/C; reported T/C was 88 % of control

---

Tested on: CD2F1 mice, L1210 leukemia ip, survival T/C
Test: NCI In Vivo Anticancer Drug Screen. Data for tumor model L1210 Leukemia (intraperitoneal) in CD2F1 (CDF1) mice
Details: endpoint: mean survival time; dose: 200.0 mg/kg/injection; schedule: Q01DX009 (ip); vehicle: other; higher = longer survival
Inconclusive results and toxic doses are left out.
Entries and their T/C values follow.

1. FC(F)=C(F)I : 103 % of control
2. Cc1ccc(CN(C)N=Nc2ccc(C(=O)O)cc2)cc1 : 87 % of control
3. O=C1CC(=Nc2ccccc2)CC(=O)N1 : 89 % of control
4. CCC(=O)c1cc(O)ccc1O : 108 % of control
5. COC(=O)c1cc(OC)cc(OC)c1 : 110 % of control
6. CC(=O)OC1OC(CS[As](C)C)C(OC(C)=O)C(OC(C)=O)C1OC(C)=O (stereo unspecified) : 93 % of control
7. CC(=O)c1cccc([N+](=O)[O-])c1 : 97 % of control
8. Oc1ccc(I)cc1 : 103 % of control
9. CCCCCCCCCCCC(=O)NC(=S)Nc1cccc(C(F)(F)F)c1 : 103 % of control
10. COc1ccc(C(=O)/C(C)=C(/C)NCCC#N)c(OCc2ccccc2)c1OC : 104 % of control

// next item, T/C requested
Entry under test: CCOC(=O)C1C(=O)NC(=O)N1Cc1ccccc1 (stereo unspecified) . Its T/C was 100 % of control

---

Test system: CD2F1 mice, L1210 leukemia ip, survival T/C
Test: NCI In Vivo Anticancer Drug Screen. Data for tumor model L1210 Leukemia (intraperitoneal) in CD2F1 (CDF1) mice
Details: endpoint: mean survival time; dose: 400.0 mg/kg/injection; schedule: Q01DX009 (ip); vehicle: saline with Tween-80; higher = longer survival
Toxic doses and inconclusive results are not listed.
Entries and their T/C values follow.

Past entries and their recorded results:
1) CCOC(=O)c1ccc(N(CC)CC)cc1 : 95 % of control
2) CC1C2CC3C(OC(=O)C13)C2I (stereo unspecified) : 92 % of control
3) O=[N+]([O-])c1ncn[nH]1 : 92 % of control
4) COc1cc(/C=C/c2ccc3ccccc3n2)cc(OC)c1OC : 89 % of control
5) Cc1ccc([N+](=O)[O-])c2ccccc12 : 95 % of control

// next item, T/C requested
Test item Fc1c(F)c(F)[c]([Ge]([c]2c(F)c(F)c(F)c(F)c2F)([c]2c(F)c(F)c(F)c(F)c2F)[c]2c(F)c(F)c(F)c(F)c2F)c(F)c1F ; CD2F1 mice, L1210 leukemia ip, survival T/C; reported T/C was 91 % of control

---

System: CD2F1 mice, L1210 leukemia ip, survival T/C
Assay: NCI In Vivo Anticancer Drug Screen. Data for tumor model L1210 Leukemia (intraperitoneal) in CD2F1 (CDF1) mice
Settings: endpoint: mean survival time; dose: 75.0 mg/kg/injection; schedule: Q01DX001 (ip); vehicle: saline; higher = longer survival
Method: The antitumor activity of compounds was measured in mice bearing transplantable tumors. Survival or tumor size were measured and the results are expressed as the measurement made in the treated group (T) divided by the measurement made in the vehicle treated control group (C). The tumor model used in this assay is L1210 Leukemia (intraperitoneal) in CD2F1 (CDF1) mice
Inconclusive results and toxic doses are left out.
measuredAttribute: T/C

1) CN(N)C1CCCCC1 : 100 % of control
2) Cc1c[n+](Cc2ccccc2)ccn1 : 102 % of control
3) O=C(O)C/C=C/Br : 100 % of control
4) COc1ccc2c(c1O)CNCC2c1ccc(O)c(O)c1 (stereo not given) : 106 % of control
5) CC1CN(Br)C(=O)N(Br)C1=O (stereo not given) : 102 % of control
6) CCOC(=O)c1ncsc1NC(=O)NC : 101 % of control
7) CN(C)CCC(=O)C(c1ccccc1)c1ccccc1 : 97 % of control
8) OCC1OC(c2[nH]nc3c(NO)ncnc23)C(O)C1O (stereo not given) : 107 % of control

Test item CCN(CC)N=Nc1ccccc1 ; CD2F1 mice, L1210 leukemia ip, survival T/C; reported T/C was 114 % of control

Test item C=COC(=O)NC(CC(C)C)C(=O)O (stereo not given) ; CD2F1 mice, L1210 leukemia ip, survival T/C; reported T/C was 103 % of control

Test item C[N+]([O-])(C/C=C/c1ccccc1)c1ccccc1 (stereo not given) ; CD2F1 mice, L1210 leukemia ip, survival T/C; reported T/C was 101 % of control

Test item CCn1c(C)[n+](CC)c2ccc(C(F)(F)F)cc21 ; CD2F1 mice, L1210 leukemia ip, survival T/C; reported T/C was 94 % of control

Test item O=C(Oc1ccc(OC(=O)c2ccccc2)c([N+](=O)[O-])c1)c1ccccc1 ; CD2F1 mice, L1210 leukemia ip, survival T/C; reported T/C was 89 % of control

Test item CCN(CC)C(=S)SC ; CD2F1 mice, L1210 leukemia ip, survival T/C; reported T/C was 104 % of control

Test item COC/C=N/N(C)C ; CD2F1 mice, L1210 leukemia ip, survival T/C; reported T/C was 100 % of control

---

System: CD2F1 mice, L1210 leukemia ip, survival T/C
Assay: NCI In Vivo Anticancer Drug Screen. Data for tumor model L1210 Leukemia (intraperitoneal) in CD2F1 (CDF1) mice
Details: endpoint: mean survival time; dose: 12.5 mg/kg/injection; schedule: Q01DX005 (ip); vehicle: other; higher = longer survival
Toxic doses and inconclusive results are not listed.
measuredAttribute: T/C

Entry under test: C[CH2][Sn]1([CH2]C)[O]C2C(CO)OC(n3ccc(N)nc3=O)C2[O]1 (stereo not given) . Its T/C was 103 % of control

Entry under test: CCOC(=O)c1nc(N)c2c(CC#N)nn(-c3ccccc3)c2n1 . Its T/C was 90 % of control

Entry under test: COC(=O)c1[nH]nc(-c2ccc(N)cc2)c1N . Its T/C was 107 % of control

Entry under test: N#C/C(N)=C(\C#N)N=C1OCC(O)C(O)C1O (stereo not given) . Its T/C was 102 % of control

Entry under test: [CH3][Sn]1([CH3])[O]C2C(CO)OC(n3ccc(N)nc3=O)C2[O]1 (stereo not given) . Its T/C was 103 % of control

---

Test system: CD2F1 mice, L1210 leukemia ip, survival T/C
Experiment: NCI In Vivo Anticancer Drug Screen. Data for tumor model L1210 Leukemia (intraperitoneal) in CD2F1 (CDF1) mice
Conditions: endpoint: mean survival time; dose: 50.0 mg/kg/injection; schedule: Q01DX009 (ip); vehicle: saline with Tween-80; higher = longer survival
Toxic doses and inconclusive results are not listed.
measuredAttribute: T/C

Entry under test: C/C(=C\Cl)COC(C)(C)C . Its T/C was 98 % of control

Entry under test: C=CCNC(=S)NCCO . Its T/C was 97 % of control

Entry under test: Cc1cccc(OCC(=O)O)c1 . Its T/C was 97 % of control

---

Test system: CD2F1 mice, L1210 leukemia ip, survival T/C
Test: NCI In Vivo Anticancer Drug Screen. Data for tumor model L1210 Leukemia (intraperitoneal) in CD2F1 (CDF1) mice
Conditions: endpoint: mean survival time; dose: 100.0 mg/kg/injection; schedule: Q01DX001 (ip); vehicle: saline with Tween-80; higher = longer survival
Toxic doses and inconclusive results are not listed.
measuredAttribute: T/C

Past entries and their recorded results:
1) O=C(OCCO)c1oc2ccccc2c1OCCO : 98 % of control
2) O=C(O)C1C2CC(C1C(=O)O)C(C(=O)O)C2C(=O)O (configuration not stated) : 94 % of control

Test item COc1ccc(C(=O)OCC(=O)O)cc1 ; CD2F1 mice, L1210 leukemia ip, survival T/C; reported T/C was 98 % of control

Test item COc1cc(OC)cc(C(c2nccc3cc(OC)c(OC)cc23)C(O)(C(F)(F)F)C(F)(F)F)c1 (configuration not stated) ; CD2F1 mice, L1210 leukemia ip, survival T/C; reported T/C was 97 % of control

Test item CCOC(=O)Nc1cc2ncc(C(=O)N(C)c3ccccc3)nc2c(N)n1 ; CD2F1 mice, L1210 leukemia ip, survival T/C; reported T/C was 98 % of control

Test item CCOC(=O)C(=O)CC1=CC=CC2=NC(=O)CCN12 ; CD2F1 mice, L1210 leukemia ip, survival T/C; reported T/C was 93 % of control

Test item Cc1ccc(S(=O)(=O)OC(c2ccc(Cl)cc2)C(F)(F)F)cc1 (configuration not stated) ; CD2F1 mice, L1210 leukemia ip, survival T/C; reported T/C was 101 % of control

All figures here come from PubChem BioAssay AID256.
